Test: ATG_VDRE_CIS: Attagene CIS-FACTORIAL HepG2 Assay for human Vitamin D Receptor Element (VDRE) (AID 2282968)
Conditions: HepG2 VDRE cis-reporter transcription, actives raise or lower the signal
Active and inactive are the calls of the source. How the source made its calls: active means hit-call score of the fitted dose curve at least 0.9, where 1 is the maximum; inactive means score below 0.9.
Outcome codes: yes (1) for active, no (0) for inactive

>>> category("CCCCCc1cccc(=O)o1")
"no (0)"
>>> category("CCOC(=O)C(=O)OCC")
"no (0)"
>>> category("C[N+](C)(C)CCO")
"no (0)"
>>> category("Cc1cccc(C)c1")
"no (0)"
>>> category("CCCCCCCCCC(=O)OCC")
"yes (1)"
>>> category("O=S1(=O)CC(Cl)(Cl)C(Cl)(Cl)C1")
"yes (1)"
>>> category("CC(=O)OC(C)(C)C1CC=C(C)CC1 (centres undefined)")
"no (0)"
>>> category("C/C=C(\\C)C(=O)OC/C=C(\\C)CCC=C(C)C")
"no (0)"
>>> category("CCCCC1CCCCC(=O)O1 (centres undefined)")
"no (0)"
>>> category("CN(C)C")
"no (0)"
>>> category("Nc1ccc(O)c(N)c1")
"no (0)"
>>> category("CCCCCCCOC(C)=O")
"no (0)"
>>> category("C=C(C)C(=O)OCCOCCOC(=O)C(=C)C")
"no (0)"
>>> category("CCC(=O)OC/C=C(\\C)CCC=C(C)C")
"no (0)"
>>> category("ClCCOCCOCCCl")
"no (0)"
>>> category("CCOC(=O)C=Cc1ccccc1")
"no (0)"
>>> category("CC(=O)OCC=C(C)CCC=C(C)CCC=C(C)C")
"no (0)"
>>> category("c1coc(CNc2ncnc3nc[nH]c23)c1")
"no (0)"
>>> category("C=CC(O)CCCCC (centres undefined)")
"yes (1)"
>>> category("CC(=O)C1C(=O)C=C(C)OC1=O (centres undefined)")
"no (0)"
>>> category("O=S1(=O)CC=CC1")
"no (0)"
>>> category("CC(=O)CC(=O)N(C)C")
"no (0)"
>>> category("CCCCCCCCSCc1cc(C)c(O)c(CSCCCCCCCC)c1")
"no (0)"
>>> category("CC(C)(C)c1ccc(S)cc1")
"no (0)"
>>> category("CC(C)COC(=O)c1ccccc1O")
"no (0)"
>>> category("C=CC(C)(CCC=C(C)C)OC(=O)CC (centres undefined)")
"no (0)"
>>> category("CCCCN(CCCC)CCCCCCN(CCCC)CCCC")
"no (0)"
>>> category("CC1=CC(O)CC(C)(C)C1 (centres undefined)")
"no (0)"
>>> category("C=COCC1CCC(COC=C)CC1 (centres undefined)")
"no (0)"
>>> category("CC(=O)CCC(=O)O")
"no (0)"
>>> category("c1ccc(Cc2ccccc2)cc1")
"no (0)"
>>> category("CCCCOCCOC(=O)c1ccccc1C(=O)OCCOCCCC")
"yes (1)"
>>> category("CCCCOCCOCCOCCO")
"no (0)"
>>> category("O=C(O)c1ccccc1O")
"no (0)"

###

Test: ATG_GAL4_TRANS: Attagene TRANS-FACTORIAL HepG2 Assay for GAL4 (Internal Marker) (AID 2282976)
Details: HepG2 Attagene TRANS GAL4 internal marker reporter
Records with an inconclusive call do not appear. The source made the active and inactive calls. The calls were made as follows: active = hit-call score of the fitted dose curve at least 0.9, where 1 is the maximum; inconclusive = response in the unintended direction; inactive = score below 0.9.
measured-attribute: outcome

>>> endpoint_value("C=CC(C)(CCC=C(C)C)OC(=O)CC (centres undefined)")
"inactive"
>>> endpoint_value("CCOc1ccc(NC(C)=O)cc1")
"inactive"
>>> endpoint_value("C=C(C)C(N)=O")
"inactive"
>>> endpoint_value("CCC(C)(C)C1CCC(=O)CC1")
"inactive"
>>> endpoint_value("CC(C)Cc1ccc(C(C)C(=O)O)cc1 (centres undefined)")
"inactive"
>>> endpoint_value("CC(=O)CC(C)(C)C1CCCCC1")
"inactive"
>>> endpoint_value("C=CC(=O)OCC(CO)(COC(=O)C=C)COC(=O)C=C")
"inactive"
>>> endpoint_value("c1ccc(Sc2ccccc2)cc1")
"inactive"
>>> endpoint_value("CCCCCCCCCO")
"inactive"
>>> endpoint_value("CC/C=C\\CCOC(C)OCC (centres undefined)")
"inactive"
>>> endpoint_value("CC/C=C\\CCCCO")
"inactive"
>>> endpoint_value("CCCO[Si](OCCC)(OCCC)OCCC")
"inactive"
>>> endpoint_value("NNC(=O)OCc1ccccc1")
"inactive"
>>> endpoint_value("CC(=O)OC(C)(C)C1CC=C(C)CC1 (centres undefined)")
"inactive"
>>> endpoint_value("CCCCCCCCCCCCOC(C)=O")
"inactive"
>>> endpoint_value("CCOC(=O)C=Cc1ccccc1")
"inactive"
>>> endpoint_value("CCCCCCCCCC(=O)OCC")
"inactive"
>>> endpoint_value("N#CCCNCCC#N")
"inactive"
>>> endpoint_value("CCO[Si](CC)(OCC)OCC")
"inactive"
>>> endpoint_value("C=C(C)CCCC(C)CCO (centres undefined)")
"inactive"
>>> endpoint_value("CC(C)(O)C(=O)c1ccc(OCCO)cc1")
"inactive"
>>> endpoint_value("CC(C)COC(=O)c1ccccc1O")
"inactive"
>>> endpoint_value("[Na+]")
"inactive"
>>> endpoint_value("CC1(C)CC(=O)CC(C)(C)N1")
"inactive"
>>> endpoint_value("CCCCCCCCOC(=O)c1ccc(O)cc1")
"inactive"
>>> endpoint_value("c1ccc2scnc2c1")
"inactive"
>>> endpoint_value("CCCCCCCCCCCCS")
"inactive"
>>> endpoint_value("O=C(O)c1ccccc1O")
"inactive"
>>> endpoint_value("CN(C)C")
"inactive"
>>> endpoint_value("CCC(=O)OC(C)(C)C1CC=C(C)CC1 (centres undefined)")
"inactive"
>>> endpoint_value("CCCCCCCCCCOC(=O)c1ccccc1C(=O)OCCCCCCCC")
"inactive"
>>> endpoint_value("COc1ccc(OC)cc1")
"inactive"
>>> endpoint_value("O=C(O)C1=NN(c2ccc(S(=O)(=O)O)cc2)C(=O)C1")
"inactive"
>>> endpoint_value("CCn1cc(C(=O)O)c(=O)c2ccc(C)nc21")
"inactive"
